Measured values drawn from ChEMBL document CHEMBL1139414 for this set.

Entries with reported pKi on UniProtKB Q8IV61
Sequence (Q8IV61 whole entry): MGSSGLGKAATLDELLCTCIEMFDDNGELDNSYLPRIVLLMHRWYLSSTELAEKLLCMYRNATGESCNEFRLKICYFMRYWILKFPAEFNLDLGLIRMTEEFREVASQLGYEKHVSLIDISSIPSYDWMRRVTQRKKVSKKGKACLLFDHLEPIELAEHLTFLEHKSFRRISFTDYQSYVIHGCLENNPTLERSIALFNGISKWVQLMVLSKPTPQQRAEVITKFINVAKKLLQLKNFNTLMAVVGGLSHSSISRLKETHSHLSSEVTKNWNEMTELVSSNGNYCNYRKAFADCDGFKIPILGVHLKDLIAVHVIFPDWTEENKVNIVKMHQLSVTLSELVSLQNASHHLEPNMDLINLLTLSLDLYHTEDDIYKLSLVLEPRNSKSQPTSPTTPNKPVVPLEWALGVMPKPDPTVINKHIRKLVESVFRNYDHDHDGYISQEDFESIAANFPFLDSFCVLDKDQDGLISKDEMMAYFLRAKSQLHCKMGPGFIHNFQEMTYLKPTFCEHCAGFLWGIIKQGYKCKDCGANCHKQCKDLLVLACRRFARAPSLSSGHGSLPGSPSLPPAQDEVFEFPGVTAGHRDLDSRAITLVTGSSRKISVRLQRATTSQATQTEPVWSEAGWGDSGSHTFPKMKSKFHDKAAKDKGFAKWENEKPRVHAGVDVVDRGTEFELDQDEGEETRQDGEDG
In plain terms, pKi is the concentration in mol/L turned into minus its base-10 logarithm.

Exercise: Which value of pKi has been reported for CN(C)c1ccc(C(=O)OCC2(CO)C/C(=C\c3ccccc3[N+](=O)[O-])C(=O)O2)cc1 (racemic) in the records?
Solution: 7.84

Exercise: For the molecule CN(C)c1ccccc1C(=O)OCC1(CO)C/C(=C\c2ccccc2[N+](=O)[O-])C(=O)O1 (racemic) , what pKi is on record?
Solution: 8.03

Exercise: Look at this molecule and give its reported pKi. O=C1OC(CO)(COC(=O)c2ccc([N+](=O)[O-])cc2)C/C1=C\c1ccc([N+](=O)[O-])cc1 (racemic; form 2)
Solution: 8.65

Exercise: pKi for CN(C)c1ccccc1C(=O)OCC1(CO)C/C(=C\c2cccc([N+](=O)[O-])c2)C(=O)O1 (racemic) ?
Solution: 8.41
